protocol-description: qHTS assay to identify small molecule antagonists of the retinoid acid receptor (RAR) signaling pathway - cell viability counter screen (AID 1159551); note: % is set by controls: 0 for no effect and ±100 for the full control effect; nearly all actives have a fitted effect of over 35% in size
settings: C3RL4 cells viability, ATP luminescence (CellTiter-Glo), 6 h; series mostly up to 92.4 µM
Results filed as inconclusive are left out. Activity calls are given as the source filed them. Calls come from the whole dose curve; as a rule, active = well fitted cell-killing curve with a large enough effect in the repeat runs; inconclusive = weak or mixed curves, or effect the other way; inactive = flat fitted curve, though single readings scatter.
endpoint: activity change, negative = cytotoxicity

compound	activity change, negative = cytotoxicity
COc1ccc(S(=O)(=O)N2c3ccc(Cl)cc3[C@@](O)(c3ccccc3Cl)[C@H]2C(=O)N2CCC[C@@H]2C(N)=O)cc1OC	inactive
C[C@H](N)[C@H](O)c1cccc(O)c1	inactive
OCCCCC(O)CO (centres undefined)	inactive
O=C1CC(c2ccc(Cl)cc2)CC(=O)N1	inactive
CC(C)C[C@H](NC(=O)CNC(=O)[C@H](Cc1ccc(O)cc1)NC(=O)[C@H](CO)NC(=O)[C@H](Cc1c[nH]c2ccccc12)NC(=O)[C@H](Cc1cnc[nH]1)NC(=O)[C@@H]1CCC(=O)N1)C(=O)N[C@@H](CCCN=C(N)N)C(=O)N1CCC[C@H]1C(=O)NCC(N)=O (stereo in doubt)	inactive
O=C(O)c1ccc(Cl)cc1Cl	inactive

Q) Any idea what its activity change, negative = cytotoxicity is? The compound is CCC(CC)CO
A) inactive

Q) Any idea what its activity change, negative = cytotoxicity is? The compound is NS(=O)(=O)c1cc2c(cc1Cl)CN(C1CCCCC1)C2=O
A) inactive

Q) Any idea what its activity change, negative = cytotoxicity is? The compound is O=C(CCN1CCN(CCO)CC1)N1c2ccccc2Sc2ccc(C(F)(F)F)cc21
A) inactive

###

protocol-description: qHTS assay to identify small molecule agonists of the vitamin D receptor (VDR) signaling pathway - cell viability counter screen (AID 743224); note: % is set by controls: 0 for no effect and ±100 for the full control effect; nearly all actives have a fitted effect of over 50% in size
settings: VDR-bla HEK293T viability, CellTiter-Glo luminescence, 16 h; series mostly up to 62.6 µM
Results filed as inconclusive are left out. Active and inactive are the calls of the source. Calls come from the whole dose curve; as a rule, active = well fitted cell-killing curve with a large enough effect in the repeat runs; inconclusive = weak or mixed curves, or effect the other way; inactive = no such curve, though single readings can be large or run the other way.
endpoint: activity change, negative = cytotoxicity

Known activity change, negative = cytotoxicity results, listed for orientation:
molecule	activity change, negative = cytotoxicity
NNc1nnc(NN)c2ccccc12	inactive
O=C1c2ccccc2C(=O)C1c1ccccc1	inactive
N#Cc1ccc(C(=O)O)cc1	inactive
CCOC(=O)/C=C/c1ccccc1	inactive
CCC(CC)CO	inactive

Q) Any idea what its activity change, negative = cytotoxicity is? The molecule is CCC(C)NC(N)=O (stereo unspecified)
A) inactive

Q) Any idea what its activity change, negative = cytotoxicity is? The molecule is CC(CN)CC(C)(C)CCN (stereo unspecified)
A) inactive

Q) Any idea what its activity change, negative = cytotoxicity is? The molecule is CCOCCOCCOCC
A) inactive

Q) Any idea what its activity change, negative = cytotoxicity is? The molecule is O=C(O)c1cc(Cl)cc([N+](=O)[O-])c1Cl
A) inactive

Q) Any idea what its activity change, negative = cytotoxicity is? The molecule is CCOC(=O)c1ccc(OC(=O)CCCCCN=C(N)N)cc1
A) inactive

Q) Any idea what its activity change, negative = cytotoxicity is? The molecule is OCCCCC(O)CO (stereo unspecified)
A) inactive

Q) Any idea what its activity change, negative = cytotoxicity is? The molecule is Nc1nnc(-c2cccc(Cl)c2Cl)c(N)n1
A) inactive

Q) Any idea what its activity change, negative = cytotoxicity is? The molecule is CCN(CC)CC(=O)Nc1c(C)cccc1C
A) inactive

###

protocol-description: qHTS assay to identify small molecule antagonists of the estrogen receptor alpha (ER-alpha) signaling pathway using the BG1 cell line in the presence of 0.1 nM 17-beta-estradiol - cell viability counter screen (AID 1259241); note: % is set by controls: 0 for no effect and ±100 for the full control effect; nearly all actives have a fitted effect of over 40% in size
settings: VM7Luc4E2 (BG1) viability, CellTiter-Fluor protease, 22 h, 0.1 nM estradiol agonist added; series mostly up to 92.4 µM
Records with an inconclusive call do not appear. Active and inactive are the calls of the source. The call rests on the fitted dose curve; in most records, active means well fitted cell-killing curve with a large enough effect in the repeat runs; inconclusive means weak or mixed curves, or effect the other way; inactive means flat fitted curve, though single readings scatter.
endpoint: activity change, negative = cytotoxicity

Known activity change, negative = cytotoxicity results, listed for orientation:
molecule	activity change, negative = cytotoxicity
CCCCCCCCCCCCCC	inactive
C=C(C)C(=O)OCc1ccccc1	inactive
O=C(O)CCSSCCC(=O)O	inactive
CC(C)NCC(O)COc1ccc(COCCOC(C)C)cc1 (stereo not given)	inactive

Q) Any idea what its activity change, negative = cytotoxicity is? The molecule is CC(=O)CCCCn1c(=O)c2c(ncn2C)n(C)c1=O
A) inactive

###

protocol-description: A CellTox Green Cytotoxicity Assay to monitor cytotoxicity in HEK293 cells - 32 hour (AID 1224881); note: % is set by controls: 0 for no effect and ±100 for the full control effect; nearly all actives have a fitted effect of over 40% in size
settings: CellTox Green fluorescence; series mostly up to 76.8 µM
Inconclusive results are not listed. Active and inactive are the calls of the source. Calls come from the whole dose curve; as a rule, active = well fitted activation curve with a large enough effect in the repeat runs; inconclusive = weak or mixed curves; inactive = flat fitted curve, though single readings scatter.
endpoint: cytotoxicity increase

Known cytotoxicity increase results, listed for orientation:
compound	cytotoxicity increase
NNc1nnc(NN)c2ccccc12	inactive
CC(C)(C)OC(=O)c1ccc(O)cc1	inactive
O=C(O)CCSSCCC(=O)O	inactive
O=C(CCN1CCN(CCO)CC1)N1c2ccccc2Sc2ccc(C(F)(F)F)cc21	inactive

Q) Any idea what its cytotoxicity increase is? The compound is CC(=O)c1ccc2c(c1)Cc1ccccc1-2
A) inactive

Q) Any idea what its cytotoxicity increase is? The compound is OCCCCC(O)CO (stereo not drawn)
A) inactive

Q) Any idea what its cytotoxicity increase is? The compound is C=C(C)C(=O)OCC(C)(C)COC(=O)C(=C)C
A) inactive

Q) Any idea what its cytotoxicity increase is? The compound is O=S(=O)(O)c1cc(O)c2ccc(Nc3ccccc3)cc2c1
A) inactive

Q) Any idea what its cytotoxicity increase is? The compound is C=C(C)C1CCC(C)(O)CC1 (stereo not drawn)
A) inactive

Q) Any idea what its cytotoxicity increase is? The compound is OC[C@H](Cc1cccc(O)c1)[C@H](CO)Cc1cccc(O)c1
A) inactive

Q) Any idea what its cytotoxicity increase is? The compound is C=Cc1ccccn1
A) inactive

Q) Any idea what its cytotoxicity increase is? The compound is CCCCCCOC(=O)CC
A) inactive

Q) Any idea what its cytotoxicity increase is? The compound is COc1ccc2c(c1)C(=O)N(CCc1ccc(S(=O)(=O)NC(=O)NC3CCCCC3)cc1)C(=O)C2(C)C
A) inactive

###

protocol-description: qHTS assay to test for compound auto fluorescence at 590 nm (red) in HEK293 cells (AID 720679); note: % is set by controls: 0 for no effect and ±100 for the full control effect
settings: red autofluorescence 540/590 nm; series mostly up to 91.3 µM
Activity calls are given as the source filed them. The call rests on the fitted dose curve; in most records, active means well fitted curve in the direction sought with a large enough effect in the repeat runs; inconclusive means weak or mixed curves; inactive means flat fitted curve, though single readings scatter.
endpoint: fluorescence, % of fluorescent control

Known fluorescence, % of fluorescent control results, listed for orientation:
compound	fluorescence, % of fluorescent control
Cc1ccc(C=O)cc1C	inactive
CC(C)OC(=O)CCCCC(=O)OC(C)C	inactive
O=C(O)Cc1cn(-c2ccccc2)nc1-c1ccc(Cl)cc1	inactive
CC(C)=CCOC(=O)c1ccccc1	inactive
COc1ccc(-c2cc(=O)c3c(O)cc(O[C@@H]4O[C@H](CO[C@@H]5O[C@@H](C)[C@H](O)[C@@H](O)[C@H]5O)[C@@H](O)[C@H](O)[C@H]4O)cc3o2)cc1O	inactive
CC(=O)Nc1ccc(S(=O)(=O)Nc2ccc([N+](=O)[O-])cc2)cc1	inactive

Q) Any idea what its fluorescence, % of fluorescent control is? The compound is CC(C)(C)c1n[nH]c(=S)n(N)c1=O
A) inactive

Q) Any idea what its fluorescence, % of fluorescent control is? The compound is O=C1O[C@@H]2[C@@H](O)[C@H](O)O[C@@H]2[C@H]1O
A) inactive

Q) Any idea what its fluorescence, % of fluorescent control is? The compound is BrCCCCCBr
A) inactive

Q) Any idea what its fluorescence, % of fluorescent control is? The compound is C=C(C)C(=O)OCC(C)(C)COC(=O)C(=C)C
A) inactive

Q) Any idea what its fluorescence, % of fluorescent control is? The compound is Cc1cc(Cl)c(C)cc1Cl
A) inactive

###

Below, each of the compounds is paired with its reported max activation value.
measured-on: Nuclear receptor subfamily 1 group I member 2 (Rattus norvegicus) (UniProt Q9R1A7)
Sequence (Q9R1A7 whole entry, looked up): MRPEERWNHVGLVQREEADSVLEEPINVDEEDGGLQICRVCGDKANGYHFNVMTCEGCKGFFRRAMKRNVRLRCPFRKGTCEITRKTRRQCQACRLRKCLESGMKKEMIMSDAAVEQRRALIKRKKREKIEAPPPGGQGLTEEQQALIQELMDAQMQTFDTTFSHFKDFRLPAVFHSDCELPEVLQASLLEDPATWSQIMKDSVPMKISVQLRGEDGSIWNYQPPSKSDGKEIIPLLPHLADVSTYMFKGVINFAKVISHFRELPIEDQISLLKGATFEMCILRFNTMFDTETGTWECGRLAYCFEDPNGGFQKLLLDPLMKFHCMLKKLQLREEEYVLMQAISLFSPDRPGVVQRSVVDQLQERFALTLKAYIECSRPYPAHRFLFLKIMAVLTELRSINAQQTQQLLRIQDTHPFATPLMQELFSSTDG
protocol-description: Rat pregnane X receptor (rPXR) activation by small molecules, qHTS assay (AID 1346983); note: % is set by controls: 0 for no effect and ±100 for the full control effect; nearly all actives have a fitted effect of over 20% in size
settings: rPXR luciferase reporter cells, One-Glo luminescence, 24 h; active compounds read high
Inconclusive results are not listed.
API: value field is a number in %; no unit string.

Known max activation results, listed for orientation:
compound	u	max activation
COc1ccc(C2CNC(=O)C2)cc1OC1CCCC1 (configuration not stated)	%	-2.12
Cc1cccc(C)c1OCC(C)N (configuration not stated)	%	-1.45
COP(=O)(OC)OC(c1ccc(Cl)cc1)P(=O)(OC)OC (configuration not stated)	%	4.37

// below: max activation requested for another compound
Q) Please provide the recorded max activation for CCN(C)C(=O)Oc1cccc([C@H](C)N(C)C)c1 , tested on Nuclear receptor subfamily 1 group I member 2 (Rattus norvegicus) (UniProt Q9R1A7).
A) 7.36

###

measured-on: Cytochrome P450 1A2 (Homo sapiens)
protocol-description: Cytochrome P450 Family 1 Subfamily A Member 2 (CYP1A2) small molecule antagonists: luciferase reporter qHTS assay (AID 1671199); note: nearly all actives have a fitted effect of over 50% in size
settings: P450-Glo CYP1A2 enzyme, luciferin luminescence, 1 h; series mostly up to 53 µM
Results filed as inconclusive are left out. Activity calls are given as the source filed them. The call rests on the fitted dose curve; in most records, active means well fitted inhibition curve with a large enough effect in the repeat runs; inconclusive means weak or mixed curves; inactive means no such curve, though single readings can be large or run the other way.
# output must be one of active, inactive

Below, 8 molecules whose answers are already recorded.
molecule	qualitative-label
CC(C)(C)NC(N)=O	active
C=C1CC/C=C(\C)CC[C@@H]2[C@@H]1CC2(C)C	inactive
CNC(=O)[C@H]1O[C@@H](n2cnc3c(NCc4cc(Cl)ccc4OCc4cc(C)no4)ncnc32)[C@H](O)[C@@H]1N	inactive
O=C(O)Cc1ccc(Cl)cc1Cl	inactive
O=C1CCCC(=O)O1	inactive
Cc1ccc(S(=O)(=O)O)c(C)c1	inactive
CCNC(=O)C1CC(C)CCC1C(C)C (stereo not drawn)	inactive
CC(N)C(=O)OC(C)(C)Cc1ccc(Cl)cc1 (stereo not drawn)	active

Shift focus to the following entry.
Q) Given CCOc1cc(NC(C)=O)ccc1C(=O)OC , state the outcome it received in this test.
A) active

Taken from PubChem BioAssay (Tox21).
